assay: Evaluation of pharmacokinetic parameters for Aripiprazole following oral, intravenous or intramuscular administration of azipiprazole.
Type: ADME, organism-based
condition parameters: human, in vivo, im; dosed compound id 19, dosed compound name ARIPIPRAZOLE, gender male and female, route intramuscular, tissue Plasma
assay readout: Tmax (h)
Numeric answer only, unit h assumed.

Name the recorded Tmax for `O=C1CCc2ccc(OCCCCN3CCN(c4cccc(Cl)c4Cl)CC3)cc2N1` .
1
